Quick reference for EC50 among some compounds
System: Streptococcus sp. 'group A'
Assay: Streptococcus pyogenes SK(-)GAS viability under kanamycin – luminescence, BacTiterGlo, confirmation, counter-screen for streptokinase expression inhibitor project, dose response (AID 1900)
Format: functional, organism-based
Active and inactive are the calls of the source. No stated cut-off is given here; in the data, actives have a measured EC50 and inactives only a lower limit.

Guide cases for EC50, answers given:
COc1cccc(-c2coc3c(C)c4oc(=O)c(CCC(=O)O)c(C)c4cc23)c1    2.4 µM (active)
O[C@@H]1CCCN2CCc3c([nH]c4ccccc34)[C@H]12    > 150 µM (not active)
COc1cc(/C=C2\SC(Nc3cccnc3)=NC2=O)cc(OC)c1OC    36.8 µM (active)
C=CCSc1nsc(NC(=O)Nc2ccc(F)cc2)n1    8.13 µM (active)
Cc1ccc(C)c(/C=C/C(=O)c2ccccc(=O)c2O)c1    1.41 µM (active)
Nc1nc(CN2CCC(Cc3ccccc3)CC2)nc(Nc2ccccc2)n1    14.8 µM (active)
CCCC(=O)NCCc1ccc(F)cc1    > 150 µM (not active)
Cc1c(C(=O)N/N=C/c2c(O)ccc3ccccc23)nnn1-c1nonc1N    5.56 µM (active)

# next compound below
Tell me its EC50 given O=C(COc1ccccc1-c1ccccc1)N/N=C/c1ccc2ccccc2c1 as the entry.
4.87 µM (active)
